System: CMDR A. baumannii (FADDI-AB156)
Experiment: S16-antibiotic co-administration, synergy by Bliss Independence and HSA models
Type: cell-based, Acinetobacter baumannii
Details: S16 and antibiotic co-administered, each at MBC50, 3 h
Each record here notes measured MBC in combination.
Write it as a number; the unit µM goes unstated.

Below, each entry is followed by its recorded MBC in combination result.
> print(dat)
                                   compound  result.value
1  C[C@@H](O)[C@H]1C(=O)N2C(C(=O)O)=C(SCCN=CN)C[C@H]12         177.4
2  CC1(C)S[C@@H]2[C@H](NC(=O)[C@H](N)c3ccccc3)C(=O)N2[C@H]1C(=O)O        2930.7
3  O=[N+]([O-])[O-].[Ag+] [Ag^+, silver nitrate]           2.9

Next item in the queue.
I am curious: what MBC in combination value has been reported for `NC[C@H]1O[C@H](O[C@H]2[C@H](O)[C@@H](O[C@H]3O[C@H](CO)[C@@H](O)[C@H](N)[C@H]3O)[C@H](N)C[C@@H]2N)[C@H](N)C[C@@H]1O` ? 2190.3
